test system: Cabbage Looper (Trichoplusia ni, TRIPNI) ("CL"); assay: Bioassay on Cabbage Looper (CL), 128-well diet tray assay; type: in vivo; details: 168 h, read-out: CL % Control (or Mortality) rating
// values below are reported mortality at 50 µg/cm2
Numbers only here, please. The scale is %.

{"smilesStructure": "O=C(Nc1ccc(-c2ncn(-c3ccc(OC(F)(F)C(F)(F)F)cc3)n2)cc1)c1ccc(Oc2ccccc2)cc1", "testedTarget": "Cabbage Looper (Trichoplusia ni, TRIPNI) (\"CL\")", "measurementLabel": "mortality at 50 µg/cm2", "endpointValue": 0}

Now consider a different molecule.
Please supply the value of reported mortality at 50 µg/cm2 for the item O=C(Nc1ccc(-c2ncn(-c3ccc(OC(F)(F)F)cc3)n2)cc1)c1cccc(COCC(F)(F)C(F)F)c1
0
